# Measurement target: CLR/RAMP2 receptor (UniProt Q16602 23-461; O60895 43-175, limits assumed)
# Sequence (Q16602 23-461 limits assumed, chain 1 of 2): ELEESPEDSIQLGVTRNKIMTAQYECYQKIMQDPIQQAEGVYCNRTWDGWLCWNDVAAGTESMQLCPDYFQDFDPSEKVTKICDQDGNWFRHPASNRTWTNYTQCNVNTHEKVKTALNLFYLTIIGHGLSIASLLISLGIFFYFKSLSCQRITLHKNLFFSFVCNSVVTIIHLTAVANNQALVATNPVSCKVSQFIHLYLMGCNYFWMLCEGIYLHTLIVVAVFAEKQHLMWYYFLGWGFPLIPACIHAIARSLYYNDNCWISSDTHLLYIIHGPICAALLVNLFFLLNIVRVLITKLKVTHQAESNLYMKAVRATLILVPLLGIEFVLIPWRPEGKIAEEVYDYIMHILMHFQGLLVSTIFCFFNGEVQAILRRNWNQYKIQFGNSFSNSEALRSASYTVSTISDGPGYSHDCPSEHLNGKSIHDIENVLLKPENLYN
# Sequence (O60895 43-175 limits assumed, chain 2 of 2): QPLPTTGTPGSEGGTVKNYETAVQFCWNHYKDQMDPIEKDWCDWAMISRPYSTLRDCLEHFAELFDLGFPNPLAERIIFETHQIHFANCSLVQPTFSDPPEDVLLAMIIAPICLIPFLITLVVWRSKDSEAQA
# Test protocol: cell-based or functional assay
*: point of attachment. Palmitoyl = CCCCCCCCCCCCCCCC(=O)*
Measurement kind: Max Activity % of positive control, CLR/RAMP2 arrestin assay

Binder: miniPEG-K(Palmitoyl)GCRFGTCTVQKLAHQIYQFTDKDKDNVAPVDPSSPHSY-NH2 (cysteine pairing not given here) [SEQ ID NO: 50]
Endpoint result: 87 % of positive control

Binder: miniPEG-K(Palmitoyl)GCRFGTCTVQKLAHQIYQFTDKDKSAPVDPSSPHSY-NH2 (ends and bridges not checked) [SEQ ID NO: 47]
Endpoint result: 64 % of positive control

Binder: Ac-FGCRFGTCTVQKLAHQIYQFTDKDKDNVAPRSKISPQGY-NH2 (cysteine pairing not given here) [human ADM, SEQ ID NO: 53]
Endpoint result: 102 % of positive control
